Tested on: CCRF-CEM leukemia
testProtocol: NCI tumour cell line growth inhibition, 48 h; in the data active = GI50 below about 0.43 µM; inactive = the rest
Thanks in advance; please answer with one of these: active, inactive

Here's what some known entries look like.
Query block: Record lookup: outcome of this test for C[C@@]1([C@H](OC(=O)c2cccc3ccccc23)C(N)=O)CO1 ?
Result block: inactive

Query block: Now the molecule C=C(c1ccc(OC)c(/C=C/C(=O)c2cc(OC)c(OC)c(OC)c2)c1)c1cc(OC)c(OC)c(OC)c1
Result block: active

Query block: Now the molecule COc1cc(-c2nn(-c3ccc(NC(=O)Nc4ccc(Cl)c(C(F)(F)F)c4)cc3)cc2-c2ccncc2)ccc1Cl
Result block: inactive

Next:
Query block: Record lookup: outcome of this test for CC[C@@]1(O)C(=O)OCc2c1cc1n(c2=O)Cc2cc3c([N+](=O)[O-])c(O)ccc3nc2-1 ?
Result block: active

Query block: Now the molecule COc1cc(/C=C/C(=O)c2ccc(F)cc2)ccc1OCCCCOc1cc2c(cc1OC)C(=O)N1CCCC1C=N2 (stereo not given)
Result block: active

Query block: Now the molecule CC[C@]12C=CCN3CC[C@@]4(c5ccc(OC)cc5N(C)[C@H]4[C@@](O)(C(=O)OC)[C@@H]1OC(=O)CCCC[P+](c1ccccc1)(c1ccccc1)c1ccccc1)[C@@H]32
Result block: inactive

Query block: Now the molecule Cc1ccccc1NC(=O)N/C(N)=N/c1nc(C)c(C)s1
Result block: active

Query block: Now the molecule COc1ccc2c(c1)O/C(=C\c1ccc([N+](=O)[O-])o1)C2=O
Result block: active

Query block: Now the molecule C=CC1CC12C(=O)C1OC2(C)C2C(=O)c3c(O)cccc3C(=O)C12 (stereo not given)
Result block: inactive

Query block: Now the molecule O=C1c2cccc3c([N+](=O)[O-])ccc(c23)C(=O)N1CCCCl
Result block: inactive
